Entries annotated with measured log10 of IC50
- experimental.system: Phosphodiesterase 3 (Homo sapiens, UniProt Q14432+Q13370)
- measurement.notes: In vitro inhibition of Phosphodiesterase 3 activity from guinea pig cardiac ventricle
- Format: protein assay, Cavia porcellus
- conditions: target entry is the homologue from another species
value.type: log10 of IC50 (log10 of the value in nM)

1) COc1cc2cc(CO)c(CO)c(-c3ccnc(-n4ccc(=O)c5ccccc54)c3)c2cc1OC : 2.60
2) COc1cc2ccc(CO)c(-c3ccnc(-n4nc(-c5cccnc5)c5ccccc5c4=O)c3)c2cc1OC.Cl : 2.85
3) COC(=O)c1cc2cc(OC)c(OC)cc2c(-c2ccnc(-n3nc(-c4cccnc4)c4ccccc4c3=O)c2)c1C(=O)OC.Cl : 4.46
4) COc1cc2cc(COC(C)=O)c(COC(C)=O)c(-c3ccnc(-n4nc(-c5cccnc5)c5ccccc5c4=O)c3)c2cc1OC.Cl : 3.54
5) COc1cc2cc(CO)c(CO)c(-c3ccnc(-n4c(=O)c5ccccc5c5ccccc54)c3)c2cc1OC : 1.61
6) COc1cc2cc(CO)c(CO)c(-c3ccnc(-n4nc(-c5ccccn5)c5ccccc5c4=O)c3)c2cc1OC.Cl : 2.23
7) COc1cc2cc(CO)c(CO)c(-c3ccnc(-n4ncc5ccccc5c4=O)c3)c2cc1OC : 2.40
8) COc1cc2cc(CO)c(CO)c(-c3cccc(-n4nc(-c5cccnc5)c5ccccc5c4=O)n3)c2cc1OC.Cl : 3.75
9) COc1cc2cc(CO)c(CO)c(-c3ccnc(-n4nc(-c5cccnc5)c5ccccc5c4=O)c3)c2cc1OC.Cl : 2.46
10) CCOc1cc2c(-c3ccnc(-n4nc(-c5cccnc5)c5ccccc5c4=O)c3)c(CO)c(CO)cc2cc1OC.Cl : 2.69
11) COc1cc2cc(CO)c(CO)c(-c3ccc(-n4nc(-c5cccnc5)c5ccccc5c4=O)nc3)c2cc1OC.Cl : 4.90
12) COc1cc2cc(CO)c(CO)c(-c3ccnc(-n4c(=O)ccc5ccccc54)c3)c2cc1OC : 2.52
13) COc1cc2cc(CO)cc(-c3ccnc(-n4nc(-c5cccnc5)c5ccccc5c4=O)c3)c2cc1OC.Cl : 1.91
14) CCOc1cc2cc(CO)c(CO)c(-c3ccnc(-n4nc(-c5cccnc5)c5ccccc5c4=O)c3)c2cc1OCC.Cl [T-2585.HCL] : 3.26
15) COc1cc2cc(CO)c(CO)c(-c3ccnc(-n4nc(-c5ccncc5)c5ccccc5c4=O)c3)c2cc1OC.Cl : 2.00
16) COc1cc2cc(CO)c(CO)c(-c3ccnc(-n4nc(-c5cccnc5)c5ccccc5c4=O)c3)c2cc1OCc1ccccc1.Cl : 4.20
17) CCOc1cc2cc(CO)c(CO)c(-c3ccnc(-n4nc(-c5cccnc5)c5ccccc5c4=O)c3)c2cc1OC.Cl : 1.53
18) Cl.O=c1c2ccccc2c(-c2cccnc2)nn1-c1cc(-c2c(CO)c(CO)cc3ccccc23)ccn1 : 4.70
19) COc1cc2cc(CO)c(CO)c(-c3ccnc(-n4ccccc4=O)c3)c2cc1OC : 3.30
20) COc1cc2c(-c3ccnc(-n4nc(-c5cccnc5)c5ccccc5c4=O)c3)c(CO)c(CO)cc2cc1OC1CCCC1.Cl : 2.84

###

// reported log10(IC50) for each item listed
- experimental.system: Phosphodiesterase 4 (Homo sapiens, UniProt P27815+Q08499+Q07343+Q08493)
- measurement.notes: In vitro inhibition of Phosphodiesterase 4 from guinea pig lung
- Type: protein assay, Cavia porcellus
- conditions: target entry is the homologue from another species
value.type: log10(IC50) (log10 of the value in nM)

1. COc1cc2c(-c3ccnc(-n4nc(-c5cccnc5)c5ccccc5c4=O)c3)c(CO)c(CO)cc2cc1OC1CCCC1.Cl : 1.48
2. COc1cc2cc(CO)c(CO)c(-c3ccnc(-n4nc(-c5cccnc5)c5ccccc5c4=O)c3)c2cc1OC.Cl : -0.20
3. COc1cc2cc(COC(C)=O)c(COC(C)=O)c(-c3ccnc(-n4nc(-c5cccnc5)c5ccccc5c4=O)c3)c2cc1OC.Cl : 2.28
4. COc1cc2cc(CO)c(CO)c(-c3ccnc(-n4ccc(=O)c5ccccc54)c3)c2cc1OC : 1.60
5. COc1cc2cc(CO)c(CO)c(-c3ccnc(-n4nc(-c5ccccn5)c5ccccc5c4=O)c3)c2cc1OC.Cl : -0.26
6. COC(=O)c1cc2cc(OC)c(OC)cc2c(-c2ccnc(-n3nc(-c4cccnc4)c4ccccc4c3=O)c2)c1C(=O)OC.Cl : 2.18
7. COc1cc2cc(CO)c(CO)c(-c3ccnc(-n4nc(-c5ccncc5)c5ccccc5c4=O)c3)c2cc1OC.Cl : -0.31
8. COc1cc2cc(CO)c(CO)c(-c3ccnc(-n4nc(-c5cccnc5)c5ccccc5c4=O)c3)c2cc1OCc1ccccc1.Cl : 1.23
9. COc1cc2cc(CO)c(CO)c(-c3ccnc(-n4c(=O)c5ccccc5c5ccccc54)c3)c2cc1OC : -0.70
10. COc1cc2cc(CO)c(CO)c(-c3ccc(-n4nc(-c5cccnc5)c5ccccc5c4=O)nc3)c2cc1OC.Cl : 1.60
11. COc1cc2ccc(CO)c(-c3ccnc(-n4nc(-c5cccnc5)c5ccccc5c4=O)c3)c2cc1OC.Cl : 1.49
12. CCOc1cc2cc(CO)c(CO)c(-c3ccnc(-n4nc(-c5cccnc5)c5ccccc5c4=O)c3)c2cc1OC.Cl : -0.05
13. COc1cc2cc(CO)c(CO)c(-c3ccnc(-n4ccccc4=O)c3)c2cc1OC : 1.90
14. CCOc1cc2c(-c3ccnc(-n4nc(-c5cccnc5)c5ccccc5c4=O)c3)c(CO)c(CO)cc2cc1OC.Cl : -0.80
15. COc1cc2cc(CO)cc(-c3ccnc(-n4nc(-c5cccnc5)c5ccccc5c4=O)c3)c2cc1OC.Cl : -0.15
16. COc1cc2cc(CO)c(CO)c(-c3ccnc(-n4ncc5ccccc5c4=O)c3)c2cc1OC : -0.17

###

Documented IC50 across a set of compounds
- experimental.system: Phosphodiesterase 4 (Homo sapiens, UniProt P27815+Q08499+Q07343+Q08493)
- measurement.notes: In vitro inhibition of Phosphodiesterase 4 from guinea pig lung
- Format: protein assay, Cavia porcellus
- conditions: target entry is the homologue from another species
value.type: IC50 (nM)

1) COc1cc2cc(CO)c(CO)c(-c3ccnc(-n4c(=O)ccc5ccccc54)c3)c2cc1OC : 2.8
2) Cl.O=c1c2ccccc2c(-c2cccnc2)nn1-c1cc(-c2c(CO)c(CO)cc3ccccc23)ccn1 : 5000
3) COc1cc2cc(CO)c(CO)c(-c3cccc(-n4nc(-c5cccnc5)c5ccccc5c4=O)n3)c2cc1OC.Cl : 15
4) COc1cc2c(-c3ccnc(-n4nc(-c5cccnc5)c5ccccc5c4=O)c3)c(CO)c(CO)cc2cc1OCc1ccccc1.Cl.Cl : 700

###

- Test system: Cavia porcellus
- measurement.notes: Change in guinea pig heart rate at 0.1 mg/kg intravenous dose
- Assay type: functional
Decide using Heart rate: a value greater than or equal to 5 delta beats min-1 is 1, a smaller one is -1.

1) CCOc1cc2c(-c3ccnc(-n4nc(-c5cccnc5)c5ccccc5c4=O)c3)c(CO)c(CO)cc2cc1OC.Cl : -1
2) COc1cc2cc(CO)c(CO)c(-c3ccnc(-n4nc(-c5cccnc5)c5ccccc5c4=O)c3)c2cc1OC.Cl : -1
3) COc1cc2cc(CO)c(CO)c(-c3ccnc(-n4ncc5ccccc5c4=O)c3)c2cc1OC : 1
4) CCOc1cc2cc(CO)c(CO)c(-c3ccnc(-n4nc(-c5cccnc5)c5ccccc5c4=O)c3)c2cc1OCC.Cl [T-2585.HCL] : -1
5) COc1cc2cc(CO)c(CO)c(-c3ccnc(-n4nc(-c5ccncc5)c5ccccc5c4=O)c3)c2cc1OC.Cl : 1

###

- Test system: Cavia porcellus
- measurement.notes: Inhibition of antigen-induced bronchoconstriction in guinea pigs at 1 mg/kg intravenous dose
- Assay type: functional
value.type: Reduction (%)

1) COc1cc2cc(CO)c(CO)c(-c3ccnc(-n4ncc5ccccc5c4=O)c3)c2cc1OC : 87
2) COc1cc2cc(CO)c(CO)c(-c3ccnc(-n4nc(-c5ccccn5)c5ccccc5c4=O)c3)c2cc1OC.Cl : 87
3) COc1cc2cc(CO)cc(-c3ccnc(-n4nc(-c5cccnc5)c5ccccc5c4=O)c3)c2cc1OC.Cl : 33
4) COc1cc2cc(CO)c(CO)c(-c3ccnc(-n4nc(-c5ccncc5)c5ccccc5c4=O)c3)c2cc1OC.Cl : 92
5) COc1cc2cc(CO)c(CO)c(-c3ccnc(-n4c(=O)c5ccccc5c5ccccc54)c3)c2cc1OC : 38
6) COc1cc2cc(CO)c(CO)c(-c3ccnc(-n4c(=O)ccc5ccccc54)c3)c2cc1OC : 86

###

- experimental.system: cGMP-dependent 3',5'-cyclic phosphodiesterase (Homo sapiens, UniProt O00408)
- Sequence (O00408 whole entry): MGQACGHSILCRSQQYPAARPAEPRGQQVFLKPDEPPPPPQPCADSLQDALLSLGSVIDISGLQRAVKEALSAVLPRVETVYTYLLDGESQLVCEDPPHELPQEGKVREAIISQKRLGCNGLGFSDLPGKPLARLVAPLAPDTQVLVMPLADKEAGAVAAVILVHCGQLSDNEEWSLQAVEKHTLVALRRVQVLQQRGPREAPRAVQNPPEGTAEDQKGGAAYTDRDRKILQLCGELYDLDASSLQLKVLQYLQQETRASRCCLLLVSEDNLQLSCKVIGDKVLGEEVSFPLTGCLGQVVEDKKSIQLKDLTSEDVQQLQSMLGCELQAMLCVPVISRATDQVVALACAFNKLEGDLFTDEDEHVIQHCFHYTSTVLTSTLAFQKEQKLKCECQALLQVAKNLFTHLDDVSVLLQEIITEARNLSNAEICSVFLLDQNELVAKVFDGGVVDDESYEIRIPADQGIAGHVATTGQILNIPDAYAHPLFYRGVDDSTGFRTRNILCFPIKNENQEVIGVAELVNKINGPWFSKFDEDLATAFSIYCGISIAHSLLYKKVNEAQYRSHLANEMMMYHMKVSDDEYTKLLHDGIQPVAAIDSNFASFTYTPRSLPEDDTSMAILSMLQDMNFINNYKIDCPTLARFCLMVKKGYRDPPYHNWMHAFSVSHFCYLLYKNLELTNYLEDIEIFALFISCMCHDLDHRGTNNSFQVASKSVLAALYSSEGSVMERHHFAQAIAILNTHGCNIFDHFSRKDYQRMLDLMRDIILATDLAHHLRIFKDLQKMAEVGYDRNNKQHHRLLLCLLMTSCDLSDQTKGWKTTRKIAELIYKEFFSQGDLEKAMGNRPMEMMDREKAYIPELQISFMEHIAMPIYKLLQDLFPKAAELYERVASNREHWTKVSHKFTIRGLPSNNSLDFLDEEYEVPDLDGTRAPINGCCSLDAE
- measurement.notes: Inhibition of guinea pig cardiac ventricle Phosphodiesterase 2
- conditions: target entry is the homologue from another species
value.type: IC50 (µM)

1. CCOc1cc2cc(CO)c(CO)c(-c3ccnc(-n4nc(-c5cccnc5)c5ccccc5c4=O)c3)c2cc1OCC.Cl [T-2585.HCL] : 1.3
